IC50 for cGMP-specific 3',5'-cyclic phosphodiesterase (Homo sapiens, UniProt O76074) - collated from the literature.
Enter your answer as a number in nM; do not include the unit.

Solved cases (4 shown):
CC1(C)C(=O)Nc2nc(-c3nn(Cc4ccccc4F)c4ncccc34)nc(C(=O)N3CCC(O)C3)c21 (stereo not shown)
930
CCOc1nc(-c2nn(Cc3ccccc3F)c3ncccc23)nc2c1C(C)(C)C(=O)N2
210
CC1(C)C(=O)Nc2nc(-c3nn(Cc4ccccc4F)c4ncccc34)nc(N3CC(N)C3)c21
100
COCC(C)(N)CNc1nc(-c2c(C)nc3c(OCc4c(F)cccc4F)cccn23)nc2c1C(C)(C)C(=O)N2 (racemic)
22

In: Would you kindly share the measured IC50 for CC1(C)C(=O)Nc2nc(-c3nn(Cc4ccccc4F)c4ncc(F)cc34)nc(O)c21 ?
Out: 74

In: And Cc1nc2c(OCc3c(F)ccc(F)c3F)cccn2c1-c1nc2c(c(C(N)=O)n1)C(C)(C)C(=O)N2 ?
Out: 4.3

In: And CCOC(=O)C1(C)C(=O)Nc2nc(-c3nn(Cc4ccccc4F)c4ncccc34)nc(I)c21 (racemic) ?
Out: 1750

====

IC50 for cGMP-specific 3',5'-cyclic phosphodiesterase (Homo sapiens) - collated from the literature.
Grouping by measured IC50 is done with the following cut points: class A (below 20 nM), class B (20 nM to below 40 nM), class C (40 nM or more)

Check out these entries, answers already filled in.
CC(C)CCNC(=O)c1nc(-c2nn(Cc3ccccc3F)c3ncccc23)nc2c1C(C)(C)C(=O)N2
class B
NC1(C(F)(F)F)C(=O)Nc2nc(-c3nn(Cc4ccccc4F)c4ncccc34)ncc21 (stereo not drawn)
class C
Cc1ccc(NC(=O)c2nc(-c3nn(Cc4ccccc4F)c4ncccc34)nc3c2C(C)(C)C(=O)N3)cn1
class C
Cc1nc2c(OCc3c(F)cccc3F)cccn2c1-c1nc2c(c(Oc3cn[nH]c3)n1)C(C)(C)C(=O)N2
class A
CC1(C)C(=O)Nc2nc(-c3nn(Cc4ccccc4F)c4ncccc34)nc(C(=O)NCC3CC3)c21
class B
Cc1cc(-c2nc(-c3nn(Cc4ccccc4F)c4ncccc34)nc3c2C(C)(C)C(=O)N3)n(C)n1
class C
Cc1nc2c(cc1F)c(-c1nnc3c(n1)NC(=O)C3(C)C)nn2Cc1ccccc1F
class B
CC1(C)C(=O)Nc2nc(-c3nn(Cc4ccccc4F)c4ncccc34)nc(N[C@@H]3CCCOC3)c21
class A
CC1(C)C(=O)Nc2nc(-c3nn(Cc4ccccc4F)c4ncccc34)nc(-n3cc(C(F)(F)F)cn3)c21
class C
CC1(C)C(=O)Nc2nc(-c3nn(Cc4ccccc4F)c4ncccc34)nc(C(=O)NCc3ccncc3)c21
class B

In: Which class is correct for the following molecule? CC1(C)C(=O)Nc2nc(-c3nn(Cc4ccccc4F)c4ncc(F)cc34)nc(C(=O)NC3CC3)c21
Out: class A

In: And COc1ccc(Cn2nc(-c3nnc4c(n3)NC(=O)C4(C)C)c3cc(F)cnc32)cc1 ?
Out: class C

In: And CC1(C)C(=O)Nc2nc(-c3nn(Cc4ccccc4F)c4ncccc34)nc(N3CCC(O)CC3)c21 ?
Out: class B

In: And CCC(C)NC(=O)c1nc(-c2nn(Cc3ccccc3F)c3ncccc23)nc2c1C(C)(C)C(=O)N2 (racemic) ?
Out: class A

====

pIC50 for cGMP-specific 3',5'-cyclic phosphodiesterase (Homo sapiens, UniProt O76074) - collated from the literature.
The read-out pIC50 is expressed as -log10 of concentration in moles per litre.

In: Would you kindly share the measured pIC50 for CCCc1nn(CC)c2c(=O)[nH]c(-c3cc(S(=O)(=O)NCC4CCN(C)C4)ccc3OCC)nc12 (stereo not shown) ?
Out: 7.03

In: And Cc1nc2c(OCc3c(F)cccc3F)cccn2c1-c1nc(NCC(N)(CF)CF)c2c(n1)NC(=O)C2(C)C ?
Out: 8.01

In: And CC1(C)CCN(c2nc(-c3nn(Cc4ccccc4F)c4ncccc34)nc3c2C(C)(C)C(=O)N3)CC1 ?
Out: 7.46

In: And C=CCC1(C)C(=O)Nc2nc(-c3nn(Cc4ccccc4F)c4ncc(F)cc34)nnc21 (racemic) ?
Out: 6.85

====

pIC50 for cGMP-specific 3',5'-cyclic phosphodiesterase (Homo sapiens, UniProt O76074) - collated from the literature.
The read-out pIC50 is expressed as -log10 of concentration in moles per litre.

Solved cases (6 shown):
Cc1nc2c(cc1F)c(-c1nc3c(c(C(N)=O)n1)C(C)(C(F)(F)F)C(=O)N3)nn2Cc1ncccc1F (racemic)
6.24
CC(C)=CCNC(=O)c1nc(-c2nn(Cc3ccccc3F)c3ncccc23)nc2c1C(C)(C)C(=O)N2
7.42
CC(NC(=O)c1nc(-c2nn(Cc3ccccc3F)c3ncccc23)nc2c1C(C)(C)C(=O)N2)C1CC1 (racemic)
7.96
CC(C)(O)CNC(=O)c1nc(-c2nn(Cc3ccccc3F)c3ncccc23)nc2c1C(C)(C)C(=O)N2
8.70
Cc1nc2c(cc1F)c(-c1nc3c(c(C(N)=O)n1)C(C)(C(F)(F)F)C(=O)N3)nn2Cc1cccc(F)c1F (single isomer, unassigned; ent-2)
6.96
CC1(C)C(=O)Nc2nc(-c3nn(Cc4ccccc4F)c4ncccc34)nc(-n3cccc(F)c3=O)c21
7.00

Query molecule follows.
In: API: value(readout= pIC50, system= cGMP-specific 3',5'-cyclic phosphodiesterase (Homo sapiens, UniProt O76074), query= Cc1nc2c(OCc3c(F)cccc3F)cccn2c1-c1nc(Cl)c2c(n1)NC(=O)C2(C)C )
Out: 6.96

====

pIC50 for cGMP-specific 3',5'-cyclic phosphodiesterase (Homo sapiens, UniProt O76074) - collated from the literature.
The read-out pIC50 is expressed as -log10 of concentration in moles per litre.

Solved cases (3 shown):
CC1(C)C(=O)Nc2nc(-c3nn(Cc4ncccc4F)c4ncc(F)cc34)nc(C(=O)NC3CC3)c21
7.92
CCOC(=O)C1(C)CC(=O)Nc2nc(-c3nn(Cc4ccccc4F)c4ncccc34)nnc21 (stereo not shown)
6.31
Cc1ccc2c(-c3nnc4c(n3)NC(=O)C4(C)C)nn(Cc3cccc(Cl)c3F)c2n1
7.20

Query molecule follows.
In: Would you kindly share the measured pIC50 for Cc1nc2c(cc1F)c(-c1nc3c(c(C(N)=O)n1)C(C)(C)C(=O)N3)nn2Cc1cccc(F)c1F ?
Out: 6.96

====

IC50 for cGMP-specific 3',5'-cyclic phosphodiesterase (Homo sapiens) - collated from the literature.
Enter your answer as a number in µM; do not include the unit.

Solved cases (5 shown):
Cc1nc2c(OCc3c(F)cccc3F)cccn2c1-c1nc(NCC(O)C(F)(F)F)c2c(n1)NC(=O)C2(C)C (racemic)
0.019
CCOCCC1(C)C(=O)Nc2nc(-c3nn(Cc4ccccc4F)c4ncc(F)cc34)nnc21 (centres unmarked)
0.66
Cc1nc2c(OCc3c(F)cccc3F)cccn2c1-c1nc(NC[C@@H](O)CO)c2c(n1)NC(=O)C2(C)C
0.008
Cn1cc(CNc2nc(-c3nn(Cc4ccccc4F)c4ncccc34)nc3c2C(C)(C)C(=O)N3)cn1
0.008
CC1(C)C(=O)Nc2nc(-c3nn(Cc4ncccc4F)c4ncc(F)cc34)nc(NCC3CC3)c21
0.024

In: Would you kindly share the measured IC50 for CC1(C)C(=O)Nc2nc(-c3nn(Cc4ccccc4F)c4ncccc34)nc(C(=O)NCCOCC(F)(F)F)c21 ?
Out: 0.062

In: And Cc1nc2c(cc1F)c(-c1nc3c(c(C(=O)NC4CC4)n1)C(C)(C)C(=O)N3)nn2Cc1cccc(F)c1F ?
Out: 0.004

In: And CC1(C)C(=O)Nc2nc(-c3nn(Cc4ccccc4F)c4ncccc34)nc(N3CCC(C(F)(F)F)C3)c21 (centres unmarked) ?
Out: 0.57

In: And Cc1nc2c(OCc3c(F)cccc3F)cccn2c1-c1nc2c(c(N3CCC[C@@H]3CO)n1)C(C)(C)C(=O)N2 ?
Out: 0.021

In: And CC1(C)C(=O)Nc2nc(-c3nn(Cc4ccccc4F)c4ncccc34)nc(-c3ccn[nH]3)c21 ?
Out: 0.04

In: And Cc1nc2c(OCc3c(F)ccc(F)c3F)cccn2c1-c1nc2c(c(C(=O)NCCC(F)(F)F)n1)C(C)(C)C(=O)N2 ?
Out: 0.0017

In: And CC1(C)C(=O)Nc2nc(-c3nn(Cc4ccccc4F)c4ncccc34)nc(NC[C@@H]3CCOC3)c21 ?
Out: 0.078

====

log10 of IC50 for cGMP-specific 3',5'-cyclic phosphodiesterase (Homo sapiens, UniProt O76074) - collated from the literature.
Friendly reminder: values = log10 of IC50, unit µM.

Solved cases (6 shown):
Cc1nc2c(cc1F)c(-c1nc(NCC(N)(CF)CF)c3c(n1)NC(=O)C3(C)C(F)(F)F)nn2Cc1cccc(F)c1F (single isomer, unassigned; ent-4)
-0.92
Cn1nccc1NC(=O)c1nc(-c2nn(Cc3ccccc3F)c3ncccc23)nc2c1C(C)(C)C(=O)N2
-2.59
CC1(C)C(=O)Nc2nc(-c3nn(Cc4ccccc4F)c4ncccc34)nc(OCCO)c21
-1.28
Cc1nc2c(cc1F)c(-c1nnc3c(n1)NC(=O)C3(C)C)nn2Cc1c(F)ccc(F)c1F
-1.57
CC1(C)C(=O)Nc2nc(-c3nn(Cc4ccccc4F)c4ncc(F)cc34)nc(C(=O)NCC(F)(F)F)c21
-1.72
CC1(C)C(=O)Nc2nc(-n3nc(Cc4ccccc4F)c4cc(F)ccc43)nc(NCC3CC3)c21
-1.39

In: Would you kindly share the measured log10 of IC50 for CC1(CC(=O)O)C(=O)Nc2nc(-c3nn(Cc4ccccc4F)c4ncccc34)nnc21 (racemic) ?
Out: 0.53

In: And COc1nc(-c2nn(Cc3ccccc3F)c3ncccc23)nc2c1C(C)(C)C(=O)N2 ?
Out: -0.85

In: And Cc1nc2c(OCc3c(F)cccc3F)cc(Cl)cn2c1-c1nc(N)c2c(n1)NC(=O)C2(C)C ?
Out: -1.33

In: And CC1C(=O)NCCN1c1nc(-c2nn(Cc3ccccc3F)c3ncccc23)nc2c1C(C)(C)C(=O)N2 (stereo not shown) ?
Out: -0.77

In: And Cc1nc2c(OCc3c(F)ccc(F)c3F)cccn2c1-c1nc(NCC(C)(C)O)c2c(n1)NC(=O)C2(C)C ?
Out: -2.28

In: And CCCc1nn(CC)c2c(=O)[nH]c(-c3cc(S(=O)(=O)NCC4CCCN4C)ccc3OCC)nc12 (stereo not shown) ?
Out: -1.48

In: And Cc1nc2c(cc1F)c(-c1nc3c(c(C(N)=O)n1)C(C)(C)C(=O)N3)nn2Cc1ccccc1F ?
Out: -1.07
